test: qHTS assay for MDR1-selective chemotherapeutics: Primary screen using the drug-selected MDR subline cells KB-V1; further: nearly all actives have a fitted effect of over 60% in size; further: potency means the concentration at half of the fitted maximal effect
runConditions: KB-V1 MDR cells viability, CellTiter-Glo, 72 h; series mostly up to 46.1 µM
About 13,000 (3.2%) of roughly 400,000 compounds were called active. Not shown: some 18% with an inconclusive outcome. What follows is part of a selection rich in actives, with near analogues and random picks from the rest.
readoutLabel: Potency

These recorded examples may help you get a feel for the data.
INSERT INTO results (compound, reportedmeasurement) VALUES
  ('O=C(CSc1ccc(-c2ccco2)nn1)Nc1cccc(F)c1', '10.3 µM (active)'),
  ('O=C(CCN1CCCCC1)Nc1ccc(F)c(F)c1', 'inactive'),
  ('Cc1cccc(Nc2nc(C)nc(N)c2S(=O)(=O)c2ccccc2)c1', 'inactive'),
  ('O=C(O)C1=C/C(=C/C=[N+]2c3cc(O)c(O[C@H]4OC(CO)[C@@H](O)[C@@H](O)[C@@H]4O)cc3C[C@@H]2C(=O)[O-])C[C@H](C(=O)O)N1 (stereo not given in full)', 'inactive');

Asked: Query: Potency; subject: CCn1ncc(C2=NOC(C(=O)N3CCN(c4ccccc4)CC3)C2)c1C (stereo not given)
Given back: inactive

The reported measurements were obtained from PubChem BioAssay AID1347076.
